- Test system: Candida albicans
- MEASUREMENT_NOTES: Antifungal activity against Candida albicans ATCC 10231 assessed as growth inhibition after 48 hrs by broth microdilution relative to control
- Assay type: functional
Below: a set of entries, each annotated with reported growth inhibition (GI).

# annotated cases, reported growth inhibition (GI) shown
molecule_smiles=CC(C)CCC[C@@H](C)[C@H]1CC[C@H]2[C@@H]3CC[C@H]4C[C@@H](O)[C@H](O)C[C@]4(C)[C@H]3CC[C@]12C result=<50%
molecule_smiles=CC(C)CCC[C@@H](C)[C@H]1CC[C@H]2[C@@H]3CC[C@H]4C[C@@H](O[C@@H]5O[C@H](CO)[C@@H](O[C@@H]6O[C@H](CO)[C@@H](O)[C@H](O)[C@H]6O)[C@H](O)[C@H]5O)CC[C@]4(C)[C@H]3CC[C@]12C result=<50%

// below: growth inhibition (GI) requested for another molecule
[ask] Looking for the measured growth inhibition (GI) of C[C@@H]1CC[C@@]2(OC1)O[C@H]1C[C@H]3[C@@H]4CC[C@H]5C[C@@H](O[C@H]6O[C@H](CO)[C@@H](O)[C@H](O)[C@H]6O)[C@H](O)C[C@]5(C)[C@H]4CC[C@]3(C)[C@H]1[C@@H]2C , can you help?
[reply] <50%
